- method-notes: Inhibition of mitochondrial complex I (unknown origin) incubated for 20 hrs by Colorimetric assay
measure: IC50
Please answer using a numeric value trailed by its unit.

Recorded result, FC(F)(F)c1ccc(/C=C/c2nc(COc3ccc(CCCCn4ccnn4)cc3)co2)cc1 [MUBRITINIB] , IC50: 51 nM

* * *

- System: MIA PaCa-2
- method-notes: Cytotoxicity against human MIA PaCa-2 cells assessed as inhibition of cell growth incubated for 7 days in glucose-containing medium by MTT assay
- Type: functional, cell-based
- experimental-setup: MIA PaCa-2, 168 h
measure: pIC50
Give bare numbers, as −log10 of the molar value.

{"columns": ["smiles-code", "system-under-test", "experimental-result"],
 "data": [
  ["CCN(CC)S(=O)(=O)c1ccc(S(=O)(=O)N2CCC[C@@H](C(=O)N[C@H]3CCN(C(=O)OC(C)(C)C)C3)C2)cc1", "MIA PaCa-2", 7.00]
]}

Now for another entry.
Recorded result, "CC(C)c1noc(N2CCN(C(=O)[C@@H]3CCCN(S(=O)(=O)c4ccc(S(=O)(=O)C(C)C)cc4)C3)CC2)n1" , pIC50: 7.15
